# target-or-system: Topoisomerase II
# procedure-summary: Inhibition effects against the Topoisomerase II activities (DNA relaxation assay, DNA cleavage assay)
# Type: biochemical
# test-parameters: supercoiled pBR322 DNA substrate, 30 minutes at 37° C.
assay-endpoint: IC50 (μg/ml), inhibition of Topoisomerase II activity (µg/mL)

Worked examples follow.
substance_smiles=COc1cccc(NC(=O)OCc2cc(N)cc(Nc3c4ccccc4nc4ccccc34)c2)c1 quantity_unit=µg/mL test_value=3
substance_smiles=Nc1cc(COC(=O)Nc2ccccc2)cc(Nc2c3ccccc3nc3ccccc23)c1 quantity_unit=µg/mL test_value=1
substance_smiles=COc1cc(NC(=S)OCc2cc(N)cc(Nc3c4ccccc4nc4ccccc34)c2)cc(OC)c1OC quantity_unit=µg/mL test_value=5

a: CC=Nc1cc(CO)cc(Nc2c3ccccc3nc3ccccc23)c1
b: COc1cc(NC(=O)OCc2cccc(Nc3c4ccccc4nc4ccccc34)c2)cc(OC)c1
Problem: Could you determine which record has the numerically smaller IC50 (μg/ml), inhibition of Topoisomerase II activity? Candidates: a and b Answer = label.
Result: b
(b: 3 µg/mL, a: 5 µg/mL)
